Test system: CAKI-1 renal
EXPERIMENT NOTES: NCI tumour cell line growth inhibition, 48 h; in the data active means GI50 below about 0.43 µM; inactive means the rest
Outcome field: choose from active, inactive

A selection of reference data follows.
[
  {
    "COMPOUND": "CC1(C)CCC(S(=O)(=O)c2ccc3c(c2)/C(=N\\O)c2cc(S(=O)(=O)N4CCN(c5ccc(F)cc5O)CC4)ccc2-3)CC1",
    "ASSIGNED CLASS": "active"
  },
  {
    "COMPOUND": "Cc1cccc(NC(=O)c2sc3nc4c(cc3c2N)CCCC4)c1",
    "ASSIGNED CLASS": "inactive"
  },
  {
    "COMPOUND": "CC(C)(C)c1[nH]nc2c1C(c1cc3ccccc3[nH]c1=O)Nc1cc(C(=O)Nc3ccc(Cl)cc3)ccc1N2 (stereo not given)",
    "ASSIGNED CLASS": "inactive"
  }
]

Q: So what was the verdict on O=C(Cc1csc2nc(-c3ccc(Br)cc3)cn12)N/N=C/c1cc(Br)ccc1O in this test?
A: inactive

Q: So what was the verdict on Cc1cc(OCc2n[nH]c(=S)n2/N=C/c2ccc(F)cc2)ccc1Cl in this test?
A: inactive

====

Test system: SK-MEL-28 melanoma
EXPERIMENT NOTES: NCI tumour cell line growth inhibition, 48 h
EXPERIMENTAL READOUT: TGI

Q: Respond only with TGI recorded for COc1ccc2c(c1)O[C@@H]1c3ccc(OC)cc3OC[C@H]21
A: > 100 µM

Q: Respond only with TGI recorded for C[C@H](CCC(=O)NN)[C@H]1CC[C@H]2[C@@H]3CC[C@@H]4C[C@H](O)CC[C@]4(C)[C@H]3CC[C@]12C
A: > 100 µM

====

Entries and their measured TGI follow.
Tested on: MDA-N
EXPERIMENT NOTES: NCI tumour cell line growth inhibition, 48 h

Answered cases to consult:
[
  {
    "COMPOUND": "OC(Cc1cccnc1)(c1ccccc1)c1ccccc1",
    "SYSTEM": "MDA-N",
    "TGI": "> 100 µM"
  },
  {
    "COMPOUND": "OCCNc1ncnc2nc[nH]c12",
    "SYSTEM": "MDA-N",
    "TGI": "> 100 µM"
  },
  {
    "COMPOUND": "CCOC1CN(C)C(=Nc2cccc3ccccc23)S1 (centres undefined)",
    "SYSTEM": "MDA-N",
    "TGI": "> 10 µM"
  },
  {
    "COMPOUND": "CCN1C/C(=C\\c2cc(OC)c(OC)c(OC)c2)C2=NN(c3ccccc3)C(c3cc(OC)c(OC)c(OC)c3)C2C1 (centres undefined)",
    "SYSTEM": "MDA-N",
    "TGI": "10.8 µM"
  }
]

Q: Respond only with TGI recorded for C=C(C)[C@@H]1CC[C@]2(COC(C)=O)CC[C@]3(C)[C@H](CC[C@@H]4[C@@]5(C)CC[C@H](OC(C)=O)C(C)(C)[C@@H]5CC[C@]43C)[C@@H]12
A: > 50 µM

Q: Respond only with TGI recorded for O=C(Nc1ccn(C2CC(O)C(CO)O2)c(=O)n1)c1ccccc1 (centres undefined)
A: > 100 µM

Q: Respond only with TGI recorded for COc1cc(C2c3cc4c(cc3OC(N3CCCCC3)C2C)OCO4)cc(OC)c1OC (centres undefined)
A: 3.28 µM

Q: Respond only with TGI recorded for C=C(C)/C=C/C(O)[C@](C)(O)[C@H]1[C@H](O)C[C@@]2(C)[C@@H]3CCc4c(cc(OC5OC(CO)C(O)C(O)C5O)c(O)c4C)C3(C)C(=O)C[C@]12C (some centres undefined)
A: > 100 µM

Q: Respond only with TGI recorded for Nc1ncnc2oc(-c3cccs3)nc12
A: > 100 µM
